Assay: Cytotoxicity against mouse L929 cells
Format: functional, cell-based
observable: pIC50
Give bare numbers, as −log10 of the molar value.

Documented pIC50 of CC[C@H](C)[C@H](NC(=O)[C@H]1CCCCN1C)C(=O)N(C)[C@H](C[C@@H](OC(C)=O)c1nc(C(=O)N[C@@H](Cc2ccccc2)C[C@H](C)C(=O)O)cs1)C(C)C : 9.47
